Taken from ChEMBL document CHEMBL6120978.

METHOD DESCRIPTION: Selectivity index, ratio of IC50 for cytotoxicity against chinese hamster V79 cells to IC50 for cytotoxicity against human SW620 cells
Type: toxicity, cell-based
DETAILS: V79 cells versus SW620 cells, read-out: Ratio IC50

>  <ENTRY SMILES>
CC[C@@H](C(=O)[C@@H](C)[C@@H](O)[C@H](C)[C@@H]1O[C@@H]([C@@H](CC)C(=O)OCc2ccccc2)CC[C@@H]1C)[C@H]1O[C@]2(C=C[C@@H](O)[C@]3(CC[C@@](C)([C@H]4CC[C@](O)(CC)[C@H](C)O4)O3)O2)[C@H](C)C[C@@H]1C

>  <selectivity ratio>
0.8

$$$$
>  <ENTRY SMILES>
CC[C@@H](C(=O)[C@@H](C)[C@@H](O)[C@H](C)[C@@H]1O[C@@H]([C@@H](CC)C(=O)OCCCC[P+](c2ccccc2)(c2ccccc2)c2ccc(N(C)C)cc2)CC[C@@H]1C)[C@H]1O[C@]2(C=C[C@@H](O)[C@]3(CC[C@@](C)([C@H]4CC[C@](O)(CC)[C@H](C)O4)O3)O2)[C@H](C)C[C@@H]1C.[Br-]

>  <selectivity ratio>
3.4

$$$$
>  <ENTRY SMILES>
CC[C@@H](C(=O)[C@@H](C)[C@@H](O)[C@H](C)[C@@H]1O[C@@H]([C@@H](CC)C(=O)OCCCC[P+](c2ccccc2OC)(c2ccccc2OC)c2ccccc2OC)CC[C@@H]1C)[C@H]1O[C@]2(C=C[C@@H](O)[C@]3(CC[C@@](C)([C@H]4CC[C@](O)(CC)[C@H](C)O4)O3)O2)[C@H](C)C[C@@H]1C.[Br-]

>  <selectivity ratio>
0.5

$$$$
>  <ENTRY SMILES>
CC[C@@H](C(=O)[C@@H](C)[C@@H](O)[C@H](C)[C@@H]1O[C@@H]([C@@H](CC)C(=O)O)CC[C@@H]1C)[C@H]1O[C@]2(C=C[C@@H](O)[C@]3(CC[C@@](C)([C@H]4CC[C@](O)(CC)[C@H](C)O4)O3)O2)[C@H](C)C[C@@H]1C

>  <selectivity ratio>
0.8

$$$$
>  <ENTRY SMILES>
CCCC[P+](CCCC)(CCCC)CCCCOC(=O)[C@H](CC)[C@H]1CC[C@H](C)[C@H]([C@@H](C)[C@H](O)[C@H](C)C(=O)[C@H](CC)[C@H]2O[C@]3(C=C[C@@H](O)[C@]4(CC[C@@](C)([C@H]5CC[C@](O)(CC)[C@H](C)O5)O4)O3)[C@H](C)C[C@@H]2C)O1.[Br-]

>  <selectivity ratio>
1.1

$$$$
